- assay name: in vivo
- condition parameters: BALB/c nude, mouse, in vivo, iv, total radioactivity, % ID/g Pancreas
compounds and their reported tissue uptake at 4 h
Hi! Could you send only the number? It should be in %ID/g, unit omitted.

compound	measured parameter	uom	recorded value
C[C@@H](O)[C@H](NC(=O)[C@@H]1CSSC[C@H](NC(=O)[C@@H](Cc2ccccc2)NC(=O)COCCOCCNC(=O)COCCOCCNC(=O)[C@H](CCCCNC(=O)c2cccc(NC(=O)N[C@@H]3CN(C4CCCCC4)c4ccccc4N(CC(=O)C(C)(C)C)C3=O)c2)NC(=O)CN2CCN(CC(=O)O)CCN(CC(=O)O)CCN(CC(=O)O)CC2)C(=O)N[C@@H](Cc2ccc(O)cc2)C(=O)N[C@H](Cc2c[nH]c3ccccc23)C(=O)N[C@@H](CCCCN)C(=O)N[C@@H]([C@@H](C)O)C(=O)N1)C(=O)O [Compound 177Lu-I-39, metal not drawn]	tissue uptake at 4 h	%ID/g	3.71

Okay, now this compound:
Look up tissue uptake at 4 h: CC(C)(C)C(=O)CN1C(=O)[C@H](NC(=O)Nc2cccc(C(=O)N[C@@H](CCC(=O)N[C@@H](CCC(=O)N[C@@H](CCC(=O)N[C@@H](CCCCNC(=O)COCCOCCNC(=O)COCCOCCNC(=O)CCC(C(=O)O)N3CCN(CC(=O)O)CCN(CC(=O)O)CCN(CC(=O)O)CC3)C(N)=O)C(=O)O)C(=O)O)C(=O)O)c2)CN(C2CCCCC2)c2ccccc21 (some centres unmarked) [^177Lu-C-4, metal not drawn, reference compound]
0.03

====

- assay name: in vivo
- condition parameters: BALB/c nude, mouse, in vivo, iv, total radioactivity, uptake Liver
measured parameter: tissue uptake at 24 h
Kindly format the answer as number then unit.

Data request, read-out tissue uptake at 24 h, for C[C@@H](O)[C@H](NC(=O)[C@@H]1CSSC[C@H](NC(=O)[C@@H](Cc2ccccc2)NC(=O)COCCOCCNC(=O)[C@H](CCCCNC(=O)[C@H](CCC(=O)O)NC(=O)c2cccc(NC(=O)N[C@@H]3CN(C4CCCCC4)c4ccccc4N(CC(=O)C(C)(C)C)C3=O)c2)NC(=O)CN2CCN(CC(=O)O)CCN(CC(=O)O)CCN(CC(=O)O)CC2)C(=O)N[C@@H](Cc2ccc(O)cc2)C(=O)N[C@H](Cc2c[nH]c3ccccc23)C(=O)N[C@@H](CCCCN)C(=O)N[C@@H]([C@@H](C)O)C(=O)N1)C(=O)O [Compound I-27, DOTA-K(-E-Z360)-OEG-f[CYwKTC]T-OH]
1.11 %ID/g

Fill in: tissue uptake at 24 h of C[C@@H](O)[C@H](NC(=O)[C@@H]1CSSC[C@H](NC(=O)[C@@H](Cc2ccccc2)NC(=O)COCCOCCNC(=O)COCCOCCNC(=O)[C@H](CCCCNC(=O)c2cccc(NC(=O)N[C@@H]3CN(C4CCCCC4)c4ccccc4N(CC(=O)C(C)(C)C)C3=O)c2)NC(=O)CN2CCN(CC(=O)O)CCN(CC(=O)O)CCN(CC(=O)O)CC2)C(=O)N[C@@H](Cc2ccc(O)cc2)C(=O)N[C@H](Cc2c[nH]c3ccccc23)C(=O)N[C@@H](CCCCN)C(=O)N[C@@H]([C@@H](C)O)C(=O)N1)C(=O)O [Compound I-39, DOTA-K(Z360)-OEG-OEG-f[CYwKTC]T-OH] is ___
2.78 %ID/g

# query: tissue uptake at 24 h of entry C[C@@H](O)[C@H](NC(=O)[C@@H]1CSSC[C@H](NC(=O)[C@@H](Cc2ccccc2)NC(=O)[C@H](CCCCNC(=O)CC[C@H](NC(=O)CNC(=O)c2cccc(NC(=O)N[C@@H]3CN(C4CCCCC4)c4ccccc4N(CC(=O)C(C)(C)C)C3=O)c2)C(=O)O)NC(=O)COCCOCCNC(=O)CCC(C(=O)O)N2CCN(CC(=O)O)CCN(CC(=O)O)CCN(CC(=O)O)CC2)C(=O)N[C@@H](Cc2ccc(O)cc2)C(=O)N[C@H](Cc2c[nH]c3ccccc23)C(=O)N[C@@H](CCCCN)C(=O)N[C@@H]([C@@H](C)O)C(=O)N1)C(=O)O (stereo partly drawn)
0.96 %ID/g

====

- assay name: in vivo
- condition parameters: BALB/c nude, mouse, in vivo, iv, total radioactivity, % ID/g Spleen
- Method: To a 0.5 M NaOAc buffer (20-50 μL, pH=4.5) was added 4 μL of exemplary or comparator compound in DMSO stock solution (2000 μM) and 2 mCi ^177Lu (ITM Isotope Technologies Munich), the resulting mixture was heated to 95° C. for 15 min. The resulting product was analyzed by radio-TLC and radio-HPLC (column: Shim-pack GIST 5 μm 4.6*150 mm; buffer A: 0.2% formic acid H2O; buffer B: 0.1% formic acid acetonitrile; flow rate: 1 mL/min; gradient: 0-5 min: 10% B to 95% B; then 5-8 min: 95% B). […]
measured parameter: tissue uptake at 4 h (%ID/g)
Entry rule: numbers only, all in %ID/g.

Solved cases (3 shown):
molecule	recorded value
C[C@@H](O)[C@H](NC(=O)[C@@H]1CSSC[C@H](NC(=O)[C@@H](Cc2ccccc2)NC(=O)COCCOCCNC(=O)COCCOCCNC(=O)[C@H](CCCCNC(=O)c2cccc(NC(=O)N[C@@H]3CN(C4CCCCC4)c4ccccc4N(CC(=O)C(C)(C)C)C3=O)c2)NC(=O)CN2CCN(CC(=O)O)CCN(CC(=O)O)CCN(CC(=O)O)CC2)C(=O)N[C@@H](Cc2ccc(O)cc2)C(=O)N[C@H](Cc2c[nH]c3ccccc23)C(=O)N[C@@H](CCCCN)C(=O)N[C@@H]([C@@H](C)O)C(=O)N1)C(=O)O [Compound 177Lu-I-39, metal not drawn]	0.76
CCCC[C@H](NC(=O)[C@H](Cc1c[nH]c2ccccc12)NC(=O)CNC(=O)[C@H](Cc1ccc(O)cc1)NC(=O)[C@H](C)NC(=O)[C@@H](CCC(=O)O)NC(=O)[C@@H](CCC(=O)O)NC(=O)[C@@H](CCC(=O)O)NC(=O)[C@@H](CCC(=O)O)NC(=O)[C@@H](CCC(=O)O)NC(=O)[C@@H](CCC(=O)O)NC(=O)CN1CCN(CC(=O)O)CCN(CC(=O)O)CCN(CC(=O)O)CC1)C(=O)N[C@@H](CC(=O)O)C(=O)N[C@@H](Cc1ccccc1)C(N)=O [^177Lu-C-2, metal not drawn, reference compound]	0.06
C[C@@H](O)[C@H](NC(=O)[C@@H]1CSSC[C@H](NC(=O)[C@@H](Cc2ccccc2)NC(=O)COCCOCCNC(=O)[C@H](CCCCNC(=O)c2cccc(NC(=O)N[C@@H]3CN(C4CCCCC4)c4ccccc4N(CC(=O)C(C)(C)C)C3=O)c2)NC(=O)CN2CCN(CC(=O)O)CCN(CC(=O)O)CCN(CC(=O)O)CC2)C(=O)N[C@@H](Cc2ccc(O)cc2)C(=O)N[C@H](Cc2c[nH]c3ccccc23)C(=O)N[C@@H](CCCCN)C(=O)N[C@@H]([C@@H](C)O)C(=O)N1)C(=O)O [Compound 177Lu-I-37, metal not drawn]	0.8

Okay, now this molecule:
tissue uptake at 4 h for C[C@@H](O)[C@H](NC(=O)[C@@H]1CSSC[C@H](NC(=O)[C@@H](Cc2ccccc2)NC(=O)[C@H](CCCCNC(=O)COCCOCCNC(=O)c2cccc(NC(=O)N[C@@H]3CN(C4CCCCC4)c4ccccc4N(CC(=O)C(C)(C)C)C3=O)c2)NC(=O)CN2CCN(CC(=O)O)CCN(CC(=O)O)CCN(CC(=O)O)CC2)C(=O)N[C@@H](Cc2ccc(O)cc2)C(=O)N[C@H](Cc2c[nH]c3ccccc23)C(=O)N[C@@H](CCCCN)C(=O)N[C@@H]([C@@H](C)O)C(=O)N1)C(=O)O [^177Lu-I-36, metal not drawn] ?
0.97

====

- assay name: in vivo
- condition parameters: BALB/c nude, mouse, in vivo, iv, total radioactivity, % ID/g Pancreas
- Experimental: To a 0.5 M NaOAc buffer (20-50 μL, pH=4.5) was added 4 μL of exemplary or comparator compound in DMSO stock solution (2000 μM) and 2 mCi ^177Lu (ITM Isotope Technologies Munich), the resulting mixture was heated to 95° C. for 15 min. The resulting product was analyzed by radio-TLC and radio-HPLC (column: Shim-pack GIST 5 μm 4.6*150 mm; buffer A: 0.2% formic acid H2O; buffer B: 0.1% formic acid acetonitrile; flow rate: 1 mL/min; gradient: 0-5 min: 10% B to 95% B; then 5-8 min: 95% B). […]
measured parameter: tissue uptake at 4 h (%ID/g)
Answer format: numeric, %ID/g implied, no suffix.

molecule	uom	tissue uptake at 4 h
C[C@@H](O)[C@H](NC(=O)[C@@H]1CSSC[C@H](NC(=O)[C@@H](Cc2ccccc2)NC(=O)COCCOCCNC(=O)[C@H](CCCCNC(=O)c2cccc(NC(=O)N[C@@H]3CN(C4CCCCC4)c4ccccc4N(CC(=O)C(C)(C)C)C3=O)c2)NC(=O)CN2CCN(CC(=O)O)CCN(CC(=O)O)CCN(CC(=O)O)CC2)C(=O)N[C@@H](Cc2ccc(O)cc2)C(=O)N[C@H](Cc2c[nH]c3ccccc23)C(=O)N[C@@H](CCCCN)C(=O)N[C@@H]([C@@H](C)O)C(=O)N1)C(=O)O [Compound 177Lu-I-37, metal not drawn]	%ID/g	4.5

Let's switch to this molecule now.
Form field: reported tissue uptake at 4 h of C[C@@H](O)[C@H](NC(=O)[C@@H]1CSSC[C@H](NC(=O)[C@@H](Cc2ccccc2)NC(=O)[C@H](CCCCNC(=O)c2cccc(NC(=O)N[C@@H]3CN(C4CCCCC4)c4ccccc4N(CC(=O)C(C)(C)C)C3=O)c2)NC(=O)COCCOCCNC(=O)CN2CCN(CC(=O)O)CCN(CC(=O)O)CCN(CC(=O)O)CC2)C(=O)N[C@@H](Cc2ccc(O)cc2)C(=O)N[C@H](Cc2c[nH]c3ccccc23)C(=O)N[C@@H](CCCCN)C(=O)N[C@@H]([C@@H](C)O)C(=O)N1)C(=O)O [^177Lu-I-35, metal not drawn]
5.03
